Property: composite z-score; scope: individual compounds
- TESTED_SYSTEM: Concanavalin-A (Canavalia ensiformis) (UniProt P02866)
- Sequence (P02866 whole entry, looked up): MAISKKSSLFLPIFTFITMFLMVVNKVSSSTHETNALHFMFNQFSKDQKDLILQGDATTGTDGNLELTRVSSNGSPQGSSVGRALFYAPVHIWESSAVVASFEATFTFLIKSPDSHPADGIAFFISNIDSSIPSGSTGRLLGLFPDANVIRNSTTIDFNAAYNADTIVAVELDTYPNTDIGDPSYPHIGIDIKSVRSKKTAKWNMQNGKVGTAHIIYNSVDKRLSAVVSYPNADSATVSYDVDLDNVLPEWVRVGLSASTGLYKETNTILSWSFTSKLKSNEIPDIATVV
- EXPERIMENT: ConA small-molecule binders, primary screen, artefact control for SMM control protein annotation, biochemical, small-molecule microarray, Alexa647 label, 635 nm (AID 1127);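 also: z combines 667 nm emission intensity with signal-to-noise across three replicate slides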
- EXPERIMENTAL_PARAMETERS: ConA-A647 binding fluorescence, higher = more signal
Keep the answer to the number alone.

Sample records with composite z-score:
- COMPOUND: "Cc1ccc(S[C@]2(C(=O)NCCN3CCOCC3)CC(=O)N(Cc3ccccc3)[C@@H]2c2ccc(CO)cc2I)cc1"
  TESTED_SYSTEM: "Concanavalin-A (Canavalia ensiformis) (UniProt P02866)"
  RECORDED_NUMBER: -0.112
- COMPOUND: "C=CCC(OC(C)=O)[C@@H]1[C@@H](N(Cc2ccc(-c3cccc(C(F)(F)F)c3)o2)C(=O)c2ccc(-c3ccccc3)cc2)c2cc(OCCCO)ccc2N1C(=O)c1ccc(-c2ccccc2)cc1 (stereo partly specified)"
  TESTED_SYSTEM: "Concanavalin-A (Canavalia ensiformis) (UniProt P02866)"
  RECORDED_NUMBER: -0.639
- COMPOUND: "COc1ccc([Si](C)(C)[C@H]2[C@H](CC(=O)N3Cc4ccccc4C[C@H]3CO)O[C@@]3(C(=O)N(Cc4ccc(N5CCC5=O)cc4)c4ccccc43)[C@@H]2C)cc1"
  TESTED_SYSTEM: "Concanavalin-A (Canavalia ensiformis) (UniProt P02866)"
  RECORDED_NUMBER: 1.13
- COMPOUND: "COC(=O)C(CC#Cc1ccc2c(c1)[C@]1(C(=O)N2)[C@H](C(=O)O)[C@H]2C(=O)O[C@H](c3ccccc3)[C@H](c3ccccc3)N2[C@@H]1c1ccc(O)cc1)C(=O)OC"
  TESTED_SYSTEM: "Concanavalin-A (Canavalia ensiformis) (UniProt P02866)"
  RECORDED_NUMBER: -0.417

// query So what does the record say about composite z-score for [N-]=[N+]=Nc1ccccc1C[C@@]1(C(=O)NCCN2CCOCC2)N=C(c2ccc(OCCCO)cc2)O[C@@H]1c1ccccc1 ?
// result 1.11

// query So what does the record say about composite z-score for CN(C)CCCNC(=O)[C@@]1(c2ccc([N+](=O)[O-])cc2)CC(=O)N(C2CCCCC2)[C@@H]1c1ccc(CO)cc1I ?
// result 1.15
